B1: PTPRD (parent)
chain: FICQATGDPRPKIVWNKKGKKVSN

# Variants of: B1
# protocolDescription: protein stability index of a GFP-peptide fusion (GPS, HEK-293T) (PSI 1-6); higher = more stable;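 further: lentivirally expressed fusions sorted by FACS into six bins by GFP to DsRed ratio, PSI derived from sequencing read proportions per bin multiplied by bin number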
# assayContext: c terminus: a fixed tail appended
metric: protein stability index

• I2M = 3.44
• P11D = 2.11
• I2T = 3.58
• V22S = 2.41
• W15K = 2.12
• I13R = 2.46

For every item in the list below, what is its measured protein stability index?
1. N16F
2. Q4G
3. G19P
4. K12C
5. Q4R
6. I2K
7. K17D
8. K17M

Solution:
1: 2.04; 2: 1.88; 3: 1.74; 4: 1.9; 5: 1.56; 6: 3.47; 7: 1.74; 8: 1.78
